These measurements were taken from patent US5502166A.

EXPERIMENTAL SYSTEM: ε3/.zeta.1 heteromeric NMDA receptor channel (Mus musculus, UniProt P35438+Q01098)
Sequence (Q01098 20-1239, other chains not shown): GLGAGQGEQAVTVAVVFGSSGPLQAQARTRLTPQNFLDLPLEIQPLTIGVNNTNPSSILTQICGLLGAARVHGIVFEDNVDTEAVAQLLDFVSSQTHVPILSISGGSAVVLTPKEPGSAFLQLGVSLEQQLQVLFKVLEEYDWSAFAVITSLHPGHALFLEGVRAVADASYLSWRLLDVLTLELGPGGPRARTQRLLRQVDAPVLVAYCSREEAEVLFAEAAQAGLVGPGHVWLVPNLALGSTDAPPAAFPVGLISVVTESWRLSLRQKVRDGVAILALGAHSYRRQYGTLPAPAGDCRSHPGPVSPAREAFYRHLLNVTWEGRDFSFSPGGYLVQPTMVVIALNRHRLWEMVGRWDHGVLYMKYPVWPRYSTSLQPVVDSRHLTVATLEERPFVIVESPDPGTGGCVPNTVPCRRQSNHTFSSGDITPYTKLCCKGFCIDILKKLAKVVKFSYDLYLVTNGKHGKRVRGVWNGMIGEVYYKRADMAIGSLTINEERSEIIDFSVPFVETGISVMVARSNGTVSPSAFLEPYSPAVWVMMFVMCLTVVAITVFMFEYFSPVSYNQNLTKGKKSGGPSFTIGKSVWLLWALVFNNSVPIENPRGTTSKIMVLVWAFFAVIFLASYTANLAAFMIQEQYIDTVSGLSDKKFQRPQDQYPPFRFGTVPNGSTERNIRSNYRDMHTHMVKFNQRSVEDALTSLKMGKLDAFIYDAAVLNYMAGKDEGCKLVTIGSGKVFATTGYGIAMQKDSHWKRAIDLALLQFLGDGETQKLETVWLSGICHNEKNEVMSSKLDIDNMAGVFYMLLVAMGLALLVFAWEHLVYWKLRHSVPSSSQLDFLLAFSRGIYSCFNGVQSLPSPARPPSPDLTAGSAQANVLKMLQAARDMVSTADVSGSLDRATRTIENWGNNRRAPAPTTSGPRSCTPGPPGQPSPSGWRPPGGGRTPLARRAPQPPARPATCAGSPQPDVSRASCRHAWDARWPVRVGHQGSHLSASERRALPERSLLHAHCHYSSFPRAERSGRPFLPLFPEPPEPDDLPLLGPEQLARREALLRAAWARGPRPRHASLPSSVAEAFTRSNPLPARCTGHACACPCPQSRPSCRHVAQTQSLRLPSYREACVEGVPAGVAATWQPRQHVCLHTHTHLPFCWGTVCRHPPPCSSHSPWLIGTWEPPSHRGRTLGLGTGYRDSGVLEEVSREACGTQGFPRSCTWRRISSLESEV
EXPERIMENTAL DETAILS: Electrophysiological test in Xenopus oocytes expressing ε3 and .zeta.1 subunits
RUN PARAMETERS: Ba^2+ Ringer's solution; dose-reaction curve
Protocol: Then, by using the pBKSA ε2 cut by NotI and the pBKSA ε3 cut by XbaI as molds and using T3 RNA polymerase produced by BRL Co., ε2-specific mRNAs and ε3-specific mRNAs were synthesized in vitro. Transcription was carried out in the same manner as in Example 1. Effects of the competitive antagonist were examined with 10-fold concentration of the antagonist concentration used when examining the EC50 values.
QUANTITY NAME: EC50 (nM)
Numbers only, in nM.

Which value of EC50 has been reported for `NCC(=O)O` in the records?
200
